Molecular target: KDR kinase (790-1356 AA) (Homo sapiens (Human), UniProt P35968)
Sequence (P35968 790-1356): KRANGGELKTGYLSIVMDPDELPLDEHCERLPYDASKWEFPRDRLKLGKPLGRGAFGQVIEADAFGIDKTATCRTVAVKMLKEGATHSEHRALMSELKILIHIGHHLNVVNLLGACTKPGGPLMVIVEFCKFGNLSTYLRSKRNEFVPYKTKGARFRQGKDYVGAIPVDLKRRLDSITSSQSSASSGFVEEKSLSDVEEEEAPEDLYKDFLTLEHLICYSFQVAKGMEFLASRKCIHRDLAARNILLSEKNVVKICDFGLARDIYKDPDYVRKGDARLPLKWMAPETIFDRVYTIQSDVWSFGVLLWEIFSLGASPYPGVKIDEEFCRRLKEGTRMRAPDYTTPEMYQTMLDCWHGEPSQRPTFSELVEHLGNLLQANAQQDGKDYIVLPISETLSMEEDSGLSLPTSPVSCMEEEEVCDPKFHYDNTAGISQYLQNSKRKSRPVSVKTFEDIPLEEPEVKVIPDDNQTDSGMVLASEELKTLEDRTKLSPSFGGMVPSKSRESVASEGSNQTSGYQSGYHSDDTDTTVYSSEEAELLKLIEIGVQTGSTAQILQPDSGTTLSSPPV
Assay: Inhibitory activity at KDR kinase (Lance Ultra Ulight-TK assay)
Assay type: biochemical
MEASUREMENT_LABEL: IC50 (nM)

INSERT INTO measurements (item_smiles, unit_descriptor, test_result) VALUES
  ('Cc1cc(NC(=O)Nc2ccc(F)c(C(F)(F)F)c2)ccc1Oc1cc(NC(=O)C2CC2)ncn1', 'nM', 7),
  ('O=C(Nc1ccc(Oc2ccnc(NC(=O)C3CC3)c2)c(F)c1)Nc1ccc(C(F)(F)F)c(Cl)c1', 'nM', 12.3),
  ('CN1CCN(c2cc(C(F)(F)F)cc(NC(=O)Nc3ccc(Oc4ccnc(NC(=O)C5CC5)c4)c(F)c3)n2)CC1', 'nM', 14.8);

(a) O=C(Nc1ccc(Oc2ccnc(NC(=O)C3CC3)c2)c(F)c1)Nc1ccc(Cl)c(OC(F)(F)F)c1
(b) Cc1cc(NC(=O)Nc2ccc(Cl)c(C(F)(F)F)c2)ccc1Oc1cc(NC(=O)C2CC2)ncn1
Ask: Just curious, which one has the larger IC50 reading, a or b ? I would appreciate it if you answered with the label of your choice.
Reply: b
(b: 13.7 nM, a: 5.5 nM)

(I) CC(F)(F)c1cncc(NC(=O)Nc2ccc(Oc3ccnc(NC(=O)C4CC4)c3)cc2F)c1
(II) N#Cc1cc(NC(=O)Nc2ccc(Cl)c(C(F)(F)F)c2)ccc1Oc1ccnc(NC(=O)C2CC2)c1
Ask: // compare measured IC50 between I and II ; output the lower one I would appreciate it if you answered with the label of your choice.
Reply: I
